Ref: paper PMC2807882

- target_or_test_system: Mmp53 (Mus musculus, UniProt P02340 1-390)
- Sequence (P02340 whole entry): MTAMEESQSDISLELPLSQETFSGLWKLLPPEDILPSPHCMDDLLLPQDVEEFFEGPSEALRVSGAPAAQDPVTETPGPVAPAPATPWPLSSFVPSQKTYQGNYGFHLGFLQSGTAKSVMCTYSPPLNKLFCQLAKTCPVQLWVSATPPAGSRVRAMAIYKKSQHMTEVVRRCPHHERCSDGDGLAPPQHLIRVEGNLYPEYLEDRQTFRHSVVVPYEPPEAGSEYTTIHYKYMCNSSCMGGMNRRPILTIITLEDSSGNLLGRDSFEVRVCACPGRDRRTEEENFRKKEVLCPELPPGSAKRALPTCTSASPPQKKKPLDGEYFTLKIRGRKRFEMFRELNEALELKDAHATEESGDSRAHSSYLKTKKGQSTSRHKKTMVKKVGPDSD
- assay_protocol: fluorescence anisotropy direct titration; 25 mM sodium phosphate (purification buffer pH 7.2), 225 mM NaCl, 10% v/v glycerol, 5 mM DTT, 0.2 mg/mL BSA, 22 C
- test_context: protein: recombinant; tags: N-terminal 6xHis-lipoyl-TEV tag, cleaved; chain copies: 4; label: 5'-Alexa488
property: Kd
Respond with the figure and its unit, in that order.

# input Consider the binder shown here: Ref_Alexa488 (dsDNA) DNA 1: GGACATGTCCGGACATGTCC DNA 2: GGACATGTCCGGACATGTCC What is its recorded Kd?
# output 95.5 nM
